- condition.context: 298.15 K; 101.33 kPa; Liquid; Capillary tube (Ostwald / Ubbelohde) method
assay.endpoint: viscosity (mPa·s)

- CCCCCC[n+]1ccccc1.O=S(=O)([N-]S(=O)(=O)C(F)(F)F)C(F)(F)F [1-hexylpyridinium bis(trifluromethylsulfonyl)imide]: 245.33
- CCCC[n+]1ccccc1.O=S(=O)([N-]S(=O)(=O)C(F)(F)F)C(F)(F)F [1-butylpyridinium bis[(trifluoromethyl)sulfonyl]imide]: 60.55
- CCCC[n+]1cccc(C)c1.O=S(=O)([N-]S(=O)(=O)C(F)(F)F)C(F)(F)F: 64.73
- CCCC[n+]1ccc(C)cc1.O=S(=O)([N-]S(=O)(=O)C(F)(F)F)C(F)(F)F: 54.41

---

- condition.context: 318.15 K, Ring tensiometer
Documented surface tension liquid-gas across a set of molecules
assay.endpoint: surface tension liquid-gas (mN/m)

- CC[n+]1ccccc1.O=S(=O)([N-]S(=O)(=O)C(F)(F)F)C(F)(F)F [1-ethylpyridinium bis[(trifluoromethyl)sulfonyl]imide]: 35.2
- CCCC[n+]1ccccc1.O=S(=O)([N-]S(=O)(=O)C(F)(F)F)C(F)(F)F [1-butylpyridinium bis[(trifluoromethyl)sulfonyl]imide]: 34.2
- CCCC[n+]1ccccc1C.O=S(=O)([N-]S(=O)(=O)C(F)(F)F)C(F)(F)F: 35.2
- CCCC[n+]1ccc(C)cc1.O=S(=O)([N-]S(=O)(=O)C(F)(F)F)C(F)(F)F: 34
- CCCC[n+]1cccc(C)c1.O=S(=O)([N-]S(=O)(=O)C(F)(F)F)C(F)(F)F: 34.6
- CCCC[n+]1cccc(C)c1.O=S(=O)([O-])C(F)(F)F [1-butyl-3-methylpyridinium trifluoromethanesulfonate]: 36.6
- CCCCCC[n+]1ccccc1.O=S(=O)([N-]S(=O)(=O)C(F)(F)F)C(F)(F)F [1-hexylpyridinium bis(trifluromethylsulfonyl)imide]: 32.8
- CCCC[n+]1cccc(C)c1.F[B-](F)(F)F [1-butyl-3-methylpyridinium tetrafluoroborate]: 44.9

---

Documented mass density across a set of compounds
- condition.context: 313.15 K; 101.33 kPa; Liquid; Pycnometric method
assay.endpoint: mass density (kg/m3)

- CCCC[n+]1cccc(C)c1.F[B-](F)(F)F [1-butyl-3-methylpyridinium tetrafluoroborate]: 1166
- CCCC[n+]1ccccc1.O=S(=O)([N-]S(=O)(=O)C(F)(F)F)C(F)(F)F [1-butylpyridinium bis[(trifluoromethyl)sulfonyl]imide]: 1439
- CCCCCC[n+]1ccccc1.O=S(=O)([N-]S(=O)(=O)C(F)(F)F)C(F)(F)F [1-hexylpyridinium bis(trifluromethylsulfonyl)imide]: 1368
- CCCC[n+]1ccccc1C.O=S(=O)([N-]S(=O)(=O)C(F)(F)F)C(F)(F)F: 1446
- CC[n+]1ccccc1.O=S(=O)([N-]S(=O)(=O)C(F)(F)F)C(F)(F)F [1-ethylpyridinium bis[(trifluoromethyl)sulfonyl]imide]: 1520
- CCCC[n+]1ccc(C)cc1.O=S(=O)([N-]S(=O)(=O)C(F)(F)F)C(F)(F)F: 1410
- CCCC[n+]1cccc(C)c1.O=S(=O)([N-]S(=O)(=O)C(F)(F)F)C(F)(F)F: 1420
- CCCC[n+]1cccc(C)c1.O=S(=O)([O-])C(F)(F)F [1-butyl-3-methylpyridinium trifluoromethanesulfonate]: 1275

---

Documented surface tension liquid-gas across a set of compounds
- condition.context: 303.15 K, Ring tensiometer
assay.endpoint: surface tension liquid-gas (mN/m)

- CC[n+]1ccccc1.O=S(=O)([N-]S(=O)(=O)C(F)(F)F)C(F)(F)F [1-ethylpyridinium bis[(trifluoromethyl)sulfonyl]imide]: 35.4
- CCCC[n+]1cccc(C)c1.F[B-](F)(F)F [1-butyl-3-methylpyridinium tetrafluoroborate]: 45.8
- CCCC[n+]1cccc(C)c1.O=S(=O)([O-])C(F)(F)F [1-butyl-3-methylpyridinium trifluoromethanesulfonate]: 37.5
- CCCC[n+]1cccc(C)c1.O=S(=O)([N-]S(=O)(=O)C(F)(F)F)C(F)(F)F: 35.3
